B1: Azoarcus group I ribozyme (parent)
chain: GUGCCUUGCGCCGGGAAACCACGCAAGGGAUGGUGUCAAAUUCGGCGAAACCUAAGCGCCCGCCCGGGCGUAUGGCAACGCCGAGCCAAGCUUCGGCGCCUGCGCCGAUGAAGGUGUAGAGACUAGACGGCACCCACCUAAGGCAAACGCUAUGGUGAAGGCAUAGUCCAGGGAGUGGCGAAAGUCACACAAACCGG

- Variants of: B1
- assayMethodText: reverse-splicing fitness (ratio to wild type); higher = more active; in vitro selection; Mg2+ level not given
attributeMeasured: reverse-splicing fitness

Some variants with known reverse-splicing fitness results, for comparison:
variantAnnotation: C82U A111C A145G C150G C169U U176A
reverse-splicing fitness: 0.0102
--
variantAnnotation: C82G A111G A120C A145G C150A C169G U176C
reverse-splicing fitness: 0.0237
--
variantAnnotation: C82G A120G C150U U176C
reverse-splicing fitness: 0.0192
--
variantAnnotation: A145G C150A U176G
reverse-splicing fitness: 0.184
--
variantAnnotation: C82A A120G C169U
reverse-splicing fitness: 0.0166
--
variantAnnotation: A145G C150G C169G U176A
reverse-splicing fitness: 0.014
--
variantAnnotation: C82A A111G A120U C150A C169G U176C
reverse-splicing fitness: 0.00412
--
variantAnnotation: C82G A111U A120G A145G C169A U176G
reverse-splicing fitness: 0.00491

Now let's try a different one.
Prompt line: For C82A A111G A120U A145C C169A U176G , write its reverse-splicing fitness.
Response line: 0.00163
